Provenance of the data: ChEMBL document CHEMBL4513216

# System: Plasmodium berghei
# Method: Screen against P. berghei liver stage (PbLuc), transformed with Luciferase, at 10uM
# Format: functional, HepG2
# Particulars: tested at 10 uM
The whole screen tested about 69,000 compounds, of which about 8,600 (12%) showed an effect of 50% or more. For the sample, strong results were picked, then their nearest neighbours and some compounds at random.
Could you mark each record Condition met if its INHIBITION falls strictly under 10%, and Condition not met if it equals or exceeds it?

Take the compound `Cc1ccc(C)c(-c2csc(N)c2C#N)c1` and say whether its INHIBITION is less than 10%.
Condition not met

Take the compound `COc1cc(-c2n[nH]c(CC#N)n2)cc(OC)c1OC` and say whether its INHIBITION is less than 10%.
Condition not met

Take the compound `COc1cc(Cl)c(NC(=O)NCCn2cccc2)cc1OC` and say whether its INHIBITION is less than 10%.
Condition met

Take the compound `CCN(C(=O)c1nc2c(s1)CCCN2C(C)=O)C(C)C` and say whether its INHIBITION is less than 10%.
Condition met

Take the compound `C1CC(CO[C@@H]2CC[C@H]3[C@H]2OCCN3CC2CC2)CCO1` and say whether its INHIBITION is less than 10%.
Condition met

Take the compound `CCO[C@@H]1CC[C@H]2[C@H]1OCCN2CC1CCC1` and say whether its INHIBITION is less than 10%.
Condition not met

Take the compound `C1CCC(CO[C@@H]2CC[C@H]3[C@H]2OCCN3CC2CCOCC2)C1` and say whether its INHIBITION is less than 10%.
Condition not met

Take the compound CCc1nc(C2CCCN2CCC(=O)N2CCc3ccccc32)no1 (stereo not drawn) and say whether its INHIBITION is less than 10%.
Condition not met

----------
# Tested on: Plasmodium berghei
# Method: Screen against P. berghei liver stage (PbLuc), transformed with Luciferase, at 10uM
# Assay type: functional, HepG2
# Particulars: tested at 10 uM
Screen size: about 69,000 compounds; about 8,600 (12%) showed an effect of 50% or more. The sample as a whole holds a higher share of strong results than the screen did.
Experimental Readout: INHIBITION (%)
API: value field is a number in %; no unit string.

Param readout = INHIBITION; param system = Plasmodium berghei; param query = `CNC(=O)c1ccc(Cn2ccnc2S(C)(=O)=O)cc1` ; response: value
20.5

Param readout = INHIBITION; param system = Plasmodium berghei; param query = `CNC(=O)c1csc(-c2cccnc2)n1` ; response: value
-17.2

Param readout = INHIBITION; param system = Plasmodium berghei; param query = c1cnnc(N2CCCC2CNCc2cscn2)c1 (configuration not stated) ; response: value
-56.1835

Param readout = INHIBITION; param system = Plasmodium berghei; param query = O=C(N1CCOCC1)N1CCCC(c2ncncc2-c2ccncc2)C1 (configuration not stated) ; response: value
5.11

Param readout = INHIBITION; param system = Plasmodium berghei; param query = Cc1ccc(CN2CCOCC3(C2)CN(c2ccc(C)s2)C(=O)CO3)o1 (configuration not stated) ; response: value
64.2

Param readout = INHIBITION; param system = Plasmodium berghei; param query = Cc1ccc(CN(Cc2ccccn2)C(=O)CCC2CCCN(C)C2)s1 (configuration not stated) ; response: value
49

Param readout = INHIBITION; param system = Plasmodium berghei; param query = Cc1ccc(N2CC3(COCCN(Cc4nccs4)C3)OCC2=O)s1 (configuration not stated) ; response: value
-17

Param readout = INHIBITION; param system = Plasmodium berghei; param query = `Cc1cc(C)c(CNC(=O)N(C)Cc2ccoc2)c(=O)[nH]1` ; response: value
26.5

Param readout = INHIBITION; param system = Plasmodium berghei; param query = Cc1c(C(=O)NC2CCCOC2)nnn1-c1ccccc1 (configuration not stated) ; response: value
17.1

Param readout = INHIBITION; param system = Plasmodium berghei; param query = CN(C)c1ncc(CN2CCOC(C(=O)Nc3ccccc3)C2)cn1 (configuration not stated) ; response: value
23.9

Param readout = INHIBITION; param system = Plasmodium berghei; param query = `Cc1nc(-c2cnn(C)c2)nc2c1CN(C(=O)c1cccn1C)CC2` ; response: value
-6.46

Param readout = INHIBITION; param system = Plasmodium berghei; param query = `CC(=O)NCCNC(=O)c1cnc(C(C)(C)C)s1` ; response: value
30.6

Param readout = INHIBITION; param system = Plasmodium berghei; param query = CC(O)c1cn(Cc2ccccc2)nn1 (configuration not stated) ; response: value
-1.84

Param readout = INHIBITION; param system = Plasmodium berghei; param query = `CC(=O)NCCNC(=O)N(C)Cc1ccc2c(c1)OCCO2` ; response: value
56.6

Param readout = INHIBITION; param system = Plasmodium berghei; param query = `Cc1ncc(CC(=O)N2CCC(N3C[C@@H](C)O[C@@H](C)C3)CC2)c(=O)[nH]1` ; response: value
37.4

Param readout = INHIBITION; param system = Plasmodium berghei; param query = `CSCC(=O)Nc1nccn1Cc1ccc(Br)cc1` ; response: value
50.8

Param readout = INHIBITION; param system = Plasmodium berghei; param query = `CN(C)C(=O)N1CCc2onc(C(=O)Nc3cccnc3)c2C1` ; response: value
-40.5

Param readout = INHIBITION; param system = Plasmodium berghei; param query = `CSc1ncccc1C(=O)Nc1ccc(Cn2ccccc2=O)cc1` ; response: value
9.16

Param readout = INHIBITION; param system = Plasmodium berghei; param query = `Cc1cc(C)c(CNC(=O)N(C)Cc2ccc(F)cc2)c(=O)[nH]1` ; response: value
7.27

Param readout = INHIBITION; param system = Plasmodium berghei; param query = Cc1ccc(N2CC3(COCCN(Cc4ccncc4)C3)OCC2=O)s1 (configuration not stated) ; response: value
-36

Param readout = INHIBITION; param system = Plasmodium berghei; param query = `CCn1ncc(Nc2[nH]cnc3nc(C)nc2-3)c1C` ; response: value
9

Param readout = INHIBITION; param system = Plasmodium berghei; param query = `Cc1cc(F)cc(NC(=O)N(C)CC(C)(CO)CO)c1` ; response: value
-31.38

Param readout = INHIBITION; param system = Plasmodium berghei; param query = CCC(C)CS(=O)(=O)NC(=O)C1CC1 (configuration not stated) ; response: value
2.39

Param readout = INHIBITION; param system = Plasmodium berghei; param query = `CC(C)(C#N)C(=O)Nc1nccn1Cc1ccc(Br)cc1` ; response: value
60.1

Param readout = INHIBITION; param system = Plasmodium berghei; param query = Cc1nn(C)c(N(C)C)c1CNCC(O)c1ccccc1F (configuration not stated) ; response: value
25.1

Param readout = INHIBITION; param system = Plasmodium berghei; param query = O=C(O)C1CN(Cc2cccc(-c3ccccn3)c2)CCO1 (configuration not stated) ; response: value
-1.45

Param readout = INHIBITION; param system = Plasmodium berghei; param query = `CCn1cnnc1CNC(=O)N(C)Cc1ccc2c(c1)OCCO2` ; response: value
30.2

----------
# Tested on: Plasmodium berghei
# Method: Screen against P. berghei liver stage (PbLuc), transformed with Luciferase, at 10uM
# Assay type: functional, HepG2
# Particulars: tested at 10 uM
Out of some 69,000 compounds screened, about 8,600 (12%) showed an effect of 50% or more. The sample holds strong results, similar compounds and a random draw of the others, so the mix is not that of the screen.
Experimental Readout: INHIBITION (%)
API: value field is a number in %; no unit string.

Param readout = INHIBITION; param system = Plasmodium berghei; param query = Cc1cc(C2CCCN2Cc2cc(=O)n(C)c(=O)n2C)no1 (configuration not stated) ; response: value
-10.3

Param readout = INHIBITION; param system = Plasmodium berghei; param query = `O=C(O)[C@@H]1CN(C(=O)Cc2ccccc2Cl)C[C@H]1C1CC1` ; response: value
79.2

Param readout = INHIBITION; param system = Plasmodium berghei; param query = `CCC1=N[C@@]2(CC[C@@H]3CN(C(=O)Nc4ccccc4)C[C@@H]32)C(=O)N1C` ; response: value
26.3

Param readout = INHIBITION; param system = Plasmodium berghei; param query = CCN1CCCC(CN(C)c2nccc(-c3ccc(C)nc3C)n2)C1 (configuration not stated) ; response: value
76.7

Param readout = INHIBITION; param system = Plasmodium berghei; param query = CN1CCN(c2cc(Sc3cccs3)nc(N)n2)CC1CCO (configuration not stated) ; response: value
50.2

Param readout = INHIBITION; param system = Plasmodium berghei; param query = O=S(=O)(N1CCC(n2cccc2)CC1)N1CCCC1c1ccco1 (configuration not stated) ; response: value
66.1

Param readout = INHIBITION; param system = Plasmodium berghei; param query = `CN1[C@@H]2CC[C@H]1CN(c1cc(Sc3cccs3)nc(N)n1)CC2` ; response: value
49.2
